assay_target: Oxysterols receptor LXR-alpha (Homo sapiens, UniProt Q13133)
Sequence (Q13133 whole entry): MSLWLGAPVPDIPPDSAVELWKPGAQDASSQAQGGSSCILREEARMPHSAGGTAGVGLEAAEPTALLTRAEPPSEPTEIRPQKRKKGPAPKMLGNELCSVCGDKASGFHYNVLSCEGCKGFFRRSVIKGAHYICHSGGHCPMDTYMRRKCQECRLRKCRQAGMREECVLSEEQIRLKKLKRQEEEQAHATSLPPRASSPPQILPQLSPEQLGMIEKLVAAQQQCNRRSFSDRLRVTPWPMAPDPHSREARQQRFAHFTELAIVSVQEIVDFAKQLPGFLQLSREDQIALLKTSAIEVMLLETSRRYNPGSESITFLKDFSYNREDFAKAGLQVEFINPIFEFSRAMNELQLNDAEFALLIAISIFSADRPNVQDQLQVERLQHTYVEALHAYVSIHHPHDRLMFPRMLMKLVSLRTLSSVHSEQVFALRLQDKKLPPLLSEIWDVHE
test_description: Agonist activity at GAL4-tagged human LXRalpha assessed as receptor activation expressed in African green monkey CV1 cells by luciferase reporter gene assay
Hi there, I'd appreciate the recorded EC50 for every entry that follows.
Quick reminder: number only, in nM, skip the unit.

Hey, Oxysterols receptor LXR-alpha (Homo sapiens, UniProt Q13133) data for O=C(CC1CN(S(=O)(=O)c2ccc(F)cc2)c2ccc(C(O)(C(F)(F)F)C(F)(F)F)cc2S1)N1CCOCC1 (stereo unspecified) : EC50 came out at 980

Field EC50 (Oxysterols receptor LXR-alpha (Homo sapiens, UniProt Q13133)), entry O=S(=O)(c1ccc(F)cc1)N1CCOc2cc(C(O)(C(F)(F)F)C(F)(F)F)ccc21 : 265

Case COC(=O)CC1CN(S(=O)(=O)c2ccc(F)cc2)c2ccc(C(O)(C(F)(F)F)C(F)(F)F)cc2S1 (stereo unspecified) , Oxysterols receptor LXR-alpha (Homo sapiens, UniProt Q13133), EC50 recorded as 250

Oxysterols receptor LXR-alpha (Homo sapiens, UniProt Q13133) data for CC(C)(O)CNC(=O)CC1CSc2cc(C(O)(C(F)(F)F)C(F)(F)F)ccc2N1S(=O)(=O)c1ccc(F)cc1 (racemic) ; its EC50: 792

Tested system Oxysterols receptor LXR-alpha (Homo sapiens, UniProt Q13133); EC50 recorded for O=C(CC1CN(S(=O)(=O)c2ccc(F)cc2)c2ccc(C(O)(C(F)(F)F)C(F)(F)F)cc2S1)Nc1nncs1 (stereo unspecified) was 342

Tested system Oxysterols receptor LXR-alpha (Homo sapiens, UniProt Q13133); EC50 recorded for NC(=O)CC1CN(S(=O)(=O)c2ccc(F)cc2)c2ccc(C(O)(C(F)(F)F)C(F)(F)F)cc2S1 (stereo unspecified) was 970

Entry O=S(=O)(c1ccc(F)cc1)N1CCCc2cc(C(O)(C(F)(F)F)C(F)(F)F)ccc21 : EC50 on Oxysterols receptor LXR-alpha (Homo sapiens, UniProt Q13133) = 163

Tested on Oxysterols receptor LXR-alpha (Homo sapiens, UniProt Q13133): CNC(=O)CC1CN(S(=O)(=O)c2ccc(F)cc2)c2ccc(C(O)(C(F)(F)F)C(F)(F)F)cc2S1 (stereo unspecified) . Observed EC50: 2400

With Oxysterols receptor LXR-alpha (Homo sapiens, UniProt Q13133) as the test system, CC(C)(O)CNC(=O)CC1CCc2cc(C(O)(C(F)(F)F)C(F)(F)F)ccc2N1S(=O)(=O)c1ccc(F)cc1 (racemic) showed EC50 of 1030

Form: item CC1CCN(S(=O)(=O)c2ccc(F)cc2)c2ccc(C(O)(C(F)(F)F)C(F)(F)F)cc21 (racemic) ; test system Oxysterols receptor LXR-alpha (Homo sapiens, UniProt Q13133); EC50: 70

# CC(C)(O)CNC(=O)C[C@H]1CN(S(=O)(=O)c2ccc(F)cc2)c2ccc(C(O)(C(F)(F)F)C(F)(F)F)cc2S1 with Oxysterols receptor LXR-alpha (Homo sapiens, UniProt Q13133): EC50 is 2820

Case CC(C)(O)CNC(=O)C[C@@H]1CN(S(=O)(=O)c2ccc(F)cc2)c2ccc(C(O)(C(F)(F)F)C(F)(F)F)cc2S1 , Oxysterols receptor LXR-alpha (Homo sapiens, UniProt Q13133), EC50 recorded as 3280
